Known IC50 of a selection of binders
Target: T1, full length human DLL4 (human, UniProt Q9NR61 27-685)
T1 construct: whole, on cells; also called native DLL4 expressed in HEK293 cells
T1 sequence (Q9NR61 27-685): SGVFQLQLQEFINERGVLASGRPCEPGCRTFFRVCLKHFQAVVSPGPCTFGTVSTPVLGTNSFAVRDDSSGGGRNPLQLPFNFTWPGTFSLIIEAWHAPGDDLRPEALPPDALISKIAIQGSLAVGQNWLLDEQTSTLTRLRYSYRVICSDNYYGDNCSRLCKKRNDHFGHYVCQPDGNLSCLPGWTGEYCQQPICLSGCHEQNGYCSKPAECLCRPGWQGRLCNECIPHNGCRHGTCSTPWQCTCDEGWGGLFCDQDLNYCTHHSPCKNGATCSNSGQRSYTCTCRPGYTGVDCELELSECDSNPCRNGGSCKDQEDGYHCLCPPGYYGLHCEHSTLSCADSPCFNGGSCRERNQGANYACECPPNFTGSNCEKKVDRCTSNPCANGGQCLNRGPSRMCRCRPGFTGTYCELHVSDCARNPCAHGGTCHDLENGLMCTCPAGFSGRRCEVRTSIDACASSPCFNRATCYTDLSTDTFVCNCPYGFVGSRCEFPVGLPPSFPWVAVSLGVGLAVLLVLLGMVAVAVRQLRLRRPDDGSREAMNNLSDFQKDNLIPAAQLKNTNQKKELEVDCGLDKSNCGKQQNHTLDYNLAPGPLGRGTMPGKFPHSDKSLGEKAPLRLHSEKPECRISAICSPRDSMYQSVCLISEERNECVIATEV
Assay: FACS competition, unlabeled antibody vs competitor Alexa-647 4B4, HEK293 cells with human DLL4

binder	IC50
21H3 (antibody, IgG4, V domains shown, Fully human; used for IgG4 rows and where no isotype is printed; also called 21H3 IgG4) VH: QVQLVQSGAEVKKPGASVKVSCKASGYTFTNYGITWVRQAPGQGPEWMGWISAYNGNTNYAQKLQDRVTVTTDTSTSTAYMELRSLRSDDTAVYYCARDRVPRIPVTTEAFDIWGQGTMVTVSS VL: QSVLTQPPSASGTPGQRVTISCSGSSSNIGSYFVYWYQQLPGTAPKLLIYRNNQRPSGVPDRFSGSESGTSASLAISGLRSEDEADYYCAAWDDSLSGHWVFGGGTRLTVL	0.274 µg/mL
2H10 (antibody, IgG4, V domains shown, Fully human; used for IgG4 rows and where no isotype is printed; also called 2H10 IgG4) VH: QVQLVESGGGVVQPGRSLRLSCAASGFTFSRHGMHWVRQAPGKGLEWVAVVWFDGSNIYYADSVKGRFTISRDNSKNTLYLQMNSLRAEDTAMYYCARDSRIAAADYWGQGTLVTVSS VL: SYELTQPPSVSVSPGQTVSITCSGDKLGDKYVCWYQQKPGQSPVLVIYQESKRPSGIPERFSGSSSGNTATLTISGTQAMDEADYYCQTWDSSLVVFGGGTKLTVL	1.15 µg/mL
9G8 (antibody, IgG4, V domains shown, Fully human; used for IgG4 rows and where no isotype is printed; also called 9G8 IgG4) VH: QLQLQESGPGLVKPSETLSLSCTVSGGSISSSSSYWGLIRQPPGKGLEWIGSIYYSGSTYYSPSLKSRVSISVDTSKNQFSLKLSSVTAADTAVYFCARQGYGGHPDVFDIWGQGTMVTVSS VL: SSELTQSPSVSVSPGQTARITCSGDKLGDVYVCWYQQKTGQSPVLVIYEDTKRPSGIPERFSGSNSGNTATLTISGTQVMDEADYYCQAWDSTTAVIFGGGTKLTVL	0.856 µg/mL
4B4 (antibody, IgG4, V domains shown, Fully human; used for IgG4 rows and where no isotype is printed; also called 4B4 IgG4; 4B4.1) VH: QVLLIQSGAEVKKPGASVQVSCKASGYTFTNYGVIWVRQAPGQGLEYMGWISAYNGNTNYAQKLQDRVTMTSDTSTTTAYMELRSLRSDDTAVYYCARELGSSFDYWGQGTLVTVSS VL: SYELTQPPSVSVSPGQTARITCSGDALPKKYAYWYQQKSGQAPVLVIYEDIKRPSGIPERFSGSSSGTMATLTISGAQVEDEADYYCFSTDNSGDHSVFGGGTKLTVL	0.348 µg/mL

This collection of values is drawn from patent US20100196385A1.
